Tested on: UO-31
Experiment: NCI tumour cell line growth inhibition, 48 h
The source made the active and inactive calls. No stated cut-off is given here; in the data, active = GI50 up to about 1.1 µM and inactive = higher.
Result category, one only: TRUE = active, FALSE = inactive

Check out these entries, answers already filled in.
# compound, class.assignment
records = [
    ("O=C(Cc1ccccc1)NN1C(=O)C(Cl)C1c1ccccc1 (stereo not drawn)", "FALSE"),
    ("C[C@]12CCC(=O)C=C1CC[C@@H]1[C@@H]2CC[C@]2(C)C(=O)NC(=O)C[C@@H]12", "FALSE"),
]

Recorded call for CCOC(=O)NC(Nc1c(F)c(F)c(F)c(F)c1F)(C(F)(F)F)C(F)(F)F ?
FALSE

Test call, this compound: COc1ncc(C#CC(=O)c2ccccc2OC)c(OC)n1
FALSE

Just curious, what result did Clc1ccc(-c2nn3c(COc4ccc(OCc5nnc6sc(-c7ccc(Cl)cc7)nn56)c(Cl)c4)nnc3s2)cc1 get here?
FALSE

I would be grateful if you could indicate the recorded call for CCNC(=O)C#CC(=O)NCC .
FALSE

I would be grateful if you could indicate the recorded call for O=C(O)CCC(=O)N1c2ccccc2CC1c1c[nH]c2ccccc12 (stereo not drawn) .
FALSE

Test call, this compound: Cn1ccc(C(=O)N2CCSC2=S)c(OCc2ccccc2)c1=O
FALSE

Lab log entry: Oc1cc(-c2cccc3ccccc23)nc2ncccc12 — outcome as called in the assay?
TRUE

Just curious, what result did COc1cccc(-c2cc(C(=O)Nc3ccc(Cl)cc3)nc(N)n2)c1 get here?
FALSE

What is the recorded call for this compound in the test? C=C1c2nc3ccccc3n2C=C(c2ccc(Cl)cc2)N1c1ccccc1
FALSE

Would you mind telling me which call this test gave O=C(c1ccc(Cl)cc1)C(O)c1ccc(Cl)cc1 (stereo not drawn) ?
FALSE

// param item: O=C1NC2(CCCCCC2)C2CCCCCCC12O (stereo not drawn) ; yields the recorded call
FALSE

Hey, what did the test say about CCc1ccc(Nc2cc(=O)n(C)c(SCc3ccccc3)n2)cc1 ?
FALSE

Could you please tell me the result logged for O=C1Nc2ccccc2/C1=N/NC(=O)C(O)(c1ccccc1)c1ccccc1 in this assay?
FALSE

Hi, do you know how CN(C)CCNC1=C(Cl)C(=O)c2c(O)ccc(O)c2C1=O came out in this test?
FALSE

What outcome does the record of this test show for CN(C)CCCNC(=O)c1cccc2nc3ccccc3nc12 ?
FALSE

What outcome does the record of this test show for Oc1cccc2c(Cl)ccnc12 ?
FALSE

Hey, what did the test say about COc1ccc(O)cc1C(O)c1ccccc1 (stereo not drawn) ?
FALSE

Could you kindly confirm the outcome this assay logged for BrC1(c2ccccc2)C[n+]2c(-c3ccccc3)cc(-c3ccccc3)cc2-c2ccccc21 (stereo not drawn) ?
FALSE

Answer briefly: the call reported for O=c1[nH]c(=S)[nH]c(-c2ccccc2)c1Cc1c(O)ccc2ccccc12 in this assay.
FALSE

What call does the record list for CCCCN(CCCC)C1=Nc2ccccc2-n2c(nnc2C(=O)OCC)C1 ?
FALSE

Tell me the assay call for C/C(=N\NS(=O)(=O)c1ccc(C)cc1)C(CN1CCOCC1)C(c1ccccc1)c1c(O)c2ccccc2oc1=O (stereo not drawn) please.
FALSE

* * *

System: MDA-MB-435
Assay: NCI tumour cell line growth inhibition, 48 h
Calls of active or inactive are those of the source. Cut-off read from the data, not from the text of the source: active = GI50 up to about 1.1 µM and inactive = higher.
measured.metric: GI50

Name the recorded GI50 of Cc1ncc([N+](=O)[O-])n1CCNS(=O)(=O)CCCn1ncnc1[N+](=O)[O-] , assay system MDA-MB-435.
> 100 µM (inactive)

Please report the measured GI50 for C=CCNC(=O)NC(=O)CSC1=NC(=O)C2(NN1)c1ccccc1-c1ccccc12 tested on MDA-MB-435.
> 10 µM (inactive)

Provide measured GI50 on MDA-MB-435 for COc1c2c(cc3oc(C)cc(=O)c13)OC(=N)C(C(N)=O)C2CC(=O)c1ccc(N)cc1 (stereo unspecified) please.
> 100 µM (inactive)

* * *

Tested on: OVCAR-3
Assay: NCI tumour cell line growth inhibition, 48 h
Activity calls are given as the source filed them. Cut-off read from the data, not from the text of the source: active = GI50 up to about 1.1 µM and inactive = higher.
Respond with a class label; see active, inactive

Some entries whose results are on file:
# molecule, class.assignment
rows = [
    ("CC1=Nc2sc3c(c2C2=NCCN12)CCCC3", "inactive"),
    ("CCCCOC(=O)NC(c1ccccc1)C(O)C(=O)OC1C[C@@]2(O)C(OC(=O)c3ccccc3)C3[C@](C)(C(=O)[C@H](OC(C)=O)C(=C1C)C2(C)C)[C@@H](O)C[C@H]1OC[C@@]31OC(C)=O (stereo partly specified)", "active"),
    ("Nc1c(C(=O)Nc2ccccc2)[n+]([O-])c2ccccc2[n+]1[O-]", "inactive"),
    ("O=C(NCCC(F)(F)C(F)(F)C(F)(F)C(F)(F)F)NC1OC(CO)C(O)C(O)C1O (stereo unspecified)", "inactive"),
    ("C=C1CCCC(C)(C)[C@@H]1CC/C(C)=C/Cn1c2cccc(=O)c-2nc2ccccc21", "inactive"),
]

Hello, I am checking results. What call was entered for C[Si](C)(c1ccccc1)[C@H]1CCCC=C1CCNC1c2ccccc2CCc2ccccc21 ?
inactive

* * *

# GI50 values compiled below
Test system: IGROV-1
Test: NCI tumour cell line growth inhibition, 48 h
Calls of active or inactive are those of the source. Cut-off read from the data, not from the text of the source: active = GI50 up to about 1.1 µM and inactive = higher.

Previously resolved entries follow.
# molecule, GI50
rows = [
    ("CC1=C[C@@H](C)C[C@]2(C)CC[C@H](O2)[C@]23CC[C@](C)(C[C@H](O2)[C@@H]2O[C@@](C)(CC2=O)[C@@H](O)[C@H]2CC[C@@]4(CCC[C@@H](O4)[C@H](C)C(=O)O[C@H]4C[C@H]([C@]5(O)OCC[C@H](C)[C@@H]5O)O[C@H]4C=C1)O2)O3", "3.39 nM (active)"),
    ("C[C@@H](NC1CCC[C@H]1O)c1ccccc1 (stereo partly drawn)", "> 100000 nM (inactive)"),
]

Tell me measured GI50 for Nc1ccc(-c2nc3cc(F)ccc3s2)cc1CO please.
< 10 nM (active)

* * *

Documented GI50 across a set of compounds
Tested on: COLO 205
Experiment: NCI tumour cell line growth inhibition, 48 h
Calls of active or inactive are those of the source. Cut-off read from the data, not from the text of the source: active = GI50 up to about 1.1 µM and inactive = higher.

The examples below pair each entry with its known result.
# compound, GI50
data = [
    ("COCC(=O)OC1CCn2c1nc1c2C(=O)C(C)=C(NC(C)=O)C1=O (centres undefined)", "15.5 µM (inactive)"),
    ("CCCCCCCCCCOc1ccc(/N=N/c2nnc(-c3ccc(OCCCCC)cc3)s2)cc1", "> 100 µM (inactive)"),
    ("OCC(O)C(O)C(O)c1nn(-c2ccccc2)c2nc3cc(Cl)c(Cl)cc3nc12 (centres undefined)", "44.1 µM (inactive)"),
]

Tell me measured GI50 for O=c1[nH]c(=O)n(C2CC(O)C(CO)O2)cc1OCCCc1ccccc1 (centres undefined) please.
> 100 µM (inactive)

* * *

System: RPMI-8226
Assay: NCI tumour cell line growth inhibition, 48 h
The source made the active and inactive calls. No stated cut-off is given here; in the data, active = GI50 up to about 1.1 µM and inactive = higher.
Choose one outcome from this list and give only that: active, inactive

These solved cases illustrate the format of a correct answer.
# compound, class.assignment
rows = [
    ("C[N+]1(CCCl)CC[N+](C)(CCCl)CC1 (stereo unspecified)", "inactive"),
    ("CNC(=O)/C(=C/c1ccc(OC)cc1)c1cc(OC)c(OC)c(OC)c1", "inactive"),
    ("O=C(O)c1cc2cc(c1)/N=C/c1ccccc1OCc1cccc(n1)COc1ccccc1/C=N/2", "inactive"),
    ("CCP(=O)(CC)C(Cl)(Cl)C(=O)NC", "inactive"),
    ("CC(C)(C(=O)N(C(=O)N1CCN(c2ccccc2)CC1)S(=O)(=O)c1ccccc1)c1ccc(Cl)cc1", "inactive"),
]

State the result this test recorded for CCC(=C(c1ccc(OCc2ccccc2)cc1)c1ccc(OCc2ccccc2)cc1)c1ccc(OC)cc1 .
inactive

* * *

Measured GI50 values are reported for all entries that follow.
System: MCF7
Test: NCI tumour cell line growth inhibition, 48 h
Activity calls are given as the source filed them. No stated cut-off is given here; in the data, active = GI50 up to about 1.1 µM and inactive = higher.

Some molecules with recorded GI50:
# molecule, GI50
data = [
    ("CCOC(=O)C(NC(=O)c1ccccc1)(Nc1ccc(S(=O)(=O)Nc2cc(C)on2)cc1)C(F)(F)F (centres undefined)", "> 100 µM (inactive)"),
    ("CNC(=O)/C(=C/c1ccc(OC)cc1)c1cc(OC)c(OC)c(OC)c1", "0.769 µM (active)"),
    ("Cc1ccc(S(=O)(=O)c2c(O)c3ccccc3n(C)c2=O)cc1", "> 100 µM (inactive)"),
]

Report GI50 from MCF7 testing of CC(=O)OC1CC(O)CC2=CCC3C4CCC(C(C)(O)C(O)CC5COC(=O)C5C)C4(C)CCC3C21C (centres undefined)
> 25 µM (inactive)

Give measured GI50 for Cc1c(S(=O)(=O)N/C(=N\O)Nc2ccc(Cl)c(Cl)c2)sc2ccc(Cl)cc12 (MCF7).
24.9 µM (inactive)

The reported measurements were obtained from ChEMBL document CHEMBL1201862.
